Assay: Lipophilicity index (RP-HPLC pH 7)
Format: physicochemical
Settings: buffer
Binary call on Log k' with cut-off 1: strictly below means criterion met, and equality or higher means criterion not met.

- Compound String: "CC(C)(C)OC(=O)N[C@@H](Cc1ccccc1)[C@H](O)CNC[C@@H](O)[C@H](Cc1ccc(OCC(=O)N2CCOCC2)cc1)NC(=O)OC(C)(C)C"
  Classification: "criterion met"
- Compound String: "CC(C)(C)OC(=O)N[C@@H](Cc1ccccc1)[C@H](O)CNC[C@@H](O)[C@H](Cc1ccccc1O)NC(=O)OC(C)(C)C"
  Classification: "criterion not met"
- Compound String: "CC(C)(C)OC(=O)N[C@@H](Cc1ccccc1)[C@H](O)CNC[C@@H](O)[C@H](Cc1ccccc1)NC(=O)OC(C)(C)C"
  Classification: "criterion not met"
- Compound String: "CC(C)(C)OC(=O)N[C@@H](Cc1ccccc1)[C@H](O)CNC[C@@H](O)[C@H](Cc1ccc(OCC(=O)O)cc1)NC(=O)OC(C)(C)C"
  Classification: "criterion met"
- Compound String: "CC(C)(C)OC(=O)N[C@@H](Cc1ccccc1)[C@H](O)CNC[C@@H](O)[C@H](Cc1ccc(OCCn2ccnc2)cc1)NC(=O)OC(C)(C)C"
  Classification: "criterion met"
- Compound String: "CC(C)(O)COc1ccc(C[C@H](NC(=O)OC(C)(C)C)[C@H](O)CNC[C@@H](O)[C@H](Cc2ccccc2)NC(=O)OC(C)(C)C)cc1"
  Classification: "criterion not met"
- Compound String: "CN(C)C(=O)OCCOc1ccc(C[C@H](NC(=O)OC(C)(C)C)[C@H](O)CNC[C@@H](O)[C@H](Cc2ccccc2)NC(=O)OC(C)(C)C)cc1"
  Classification: "criterion not met"
- Compound String: "CC(C)(C)OC(=O)N[C@@H](Cc1ccccc1)[C@H](O)CNC[C@@H](O)[C@H](Cc1cccc(O)c1)NC(=O)OC(C)(C)C"
  Classification: "criterion met"
- Compound String: "CC(C)(C)OC(=O)N[C@@H](Cc1ccccc1)[C@H](O)CNC[C@@H](O)[C@H](Cc1ccc(OCCCN2CCOCC2=O)cc1)NC(=O)OC(C)(C)C"
  Classification: "criterion met"
- Compound String: "CC(C)(C)OC(=O)N[C@@H](Cc1ccccc1)[C@H](O)CNC[C@@H](O)[C@H](Cc1ccc(OCCO)cc1)NC(=O)OC(C)(C)C"
  Classification: "criterion met"
- Compound String: "CC(C)(C)OC(=O)N[C@@H](Cc1ccccc1)[C@H](O)CNC[C@@H](O)[C@H](Cc1ccc(OCCOc2cccnc2)cc1)NC(=O)OC(C)(C)C"
  Classification: "criterion not met"
- Compound String: "CC(C)(C)OC(=O)N[C@@H](Cc1ccccc1)[C@H](O)CNC[C@@H](O)[C@H](Cc1ccc(OCc2nc3ccccc3o2)cc1)NC(=O)OC(C)(C)C"
  Classification: "criterion not met"

----------
Listed here: items and their measured pIC50.
Molecular target: Human immunodeficiency virus type 1 protease (Human immunodeficiency virus 1, UniProt Q72874)
Experiment: Inhibitory activity against HIV-1 protease cleavage of [V-S-Q-N-(beta-naphthylalanine)-P-I-V)
pIC50: −log10 of the molar value.

- Compound String: "CC(C)(C)OC(=O)N[C@@H](Cc1ccccc1)[C@H](O)CNC[C@@H](O)[C@H](Cc1ccc(OCCCN2CCOCC2)cc1)NC(=O)OC(C)(C)C"
  pIC50: 7.07
- Compound String: "CC(C)(C)OC(=O)N[C@@H](Cc1ccccc1)[C@H](O)CNC[C@@H](O)[C@H](Cc1ccc(O)cc1)NC(=O)OC(C)(C)C"
  pIC50: 7.00
- Compound String: "CC(C)(C)OC(=O)N[C@@H](Cc1ccccc1)[C@H](O)CNC[C@@H](O)[C@H](Cc1ccc(OCCOc2cccnc2)cc1)NC(=O)OC(C)(C)C"
  pIC50: 7.22
- Compound String: "CC(C)(C)OC(=O)N[C@@H](Cc1ccccc1)[C@H](O)CNC[C@@H](O)[C@H](Cc1ccc(CCC(=O)N2CCOCC2)cc1)NC(=O)OC(C)(C)C"
  pIC50: 7.07
- Compound String: "CN(C)C(=O)OCCOc1ccc(C[C@H](NC(=O)OC(C)(C)C)[C@H](O)CNC[C@@H](O)[C@H](Cc2ccccc2)NC(=O)OC(C)(C)C)cc1"
  pIC50: 7.40
- Compound String: "CC(C)(C)OC(=O)N[C@@H](Cc1ccccc1)[C@H](O)CNC[C@@H](O)[C@H](Cc1cccc(OCc2ccccc2)c1)NC(=O)OC(C)(C)C"
  pIC50: 6.85
- Compound String: "CC(C)(C)OC(=O)N[C@@H](Cc1ccccc1)[C@H](O)CNC[C@@H](O)[C@H](Cc1ccc(OCCc2ccccn2)cc1)NC(=O)OC(C)(C)C"
  pIC50: 7.30
- Compound String: "CC(C)(C)OC(=O)N[C@@H](Cc1ccccc1)[C@H](O)CNC[C@@H](O)[C@H](Cc1ccccc1O)NC(=O)OC(C)(C)C"
  pIC50: 6.52
- Compound String: "CC(C)(O)COc1ccc(C[C@H](NC(=O)OC(C)(C)C)[C@H](O)CNC[C@@H](O)[C@H](Cc2ccccc2)NC(=O)OC(C)(C)C)cc1"
  pIC50: 6.92
- Compound String: "CC(C)(C)OC(=O)N[C@@H](Cc1ccccc1)[C@H](O)CNC[C@@H](O)[C@H](Cc1ccc(COC(=O)N2CCOCC2)cc1)NC(=O)OC(C)(C)C"
  pIC50: 7.52
- Compound String: "COCCOc1ccc(C[C@H](NC(=O)OC(C)(C)C)[C@H](O)CNC[C@@H](O)[C@H](Cc2ccccc2)NC(=O)OC(C)(C)C)cc1"
  pIC50: 7.14
- Compound String: "COCCCCOc1ccc(C[C@H](NC(=O)OC(C)(C)C)[C@H](O)CNC[C@@H](O)[C@H](Cc2ccccc2)NC(=O)OC(C)(C)C)cc1"
  pIC50: 7.30
- Compound String: "CC(C)(C)OC(=O)N[C@@H](Cc1ccccc1)[C@H](O)CNC[C@@H](O)[C@H](Cc1ccc2ncccc2c1)NC(=O)OC(C)(C)C"
  pIC50: 6.89
